These data points were gathered from ChEMBL document CHEMBL1154504.

test: Solubility in water; assay type: physicochemical
Kindly supply the reported solubility values for the records listed here.

Query :: I'd like to know its solubility. The molecule in question is C=CCNc1c(O)cc2c(O)c1C[C@@H](C)C[C@H](OC)[C@H](O)[C@@H](C)/C=C(\C)[C@H](OC(N)=O)[C@@H](OC)/C=C\C=C(/C)C(=O)N2.Cl [RETASPIMYCIN HYDROCHLORIDE]
Result :: > 250000 µg/mL

Query :: Entry COc1ccc(I)c(Sc2nc3c(N)ncnc3n2CCNCC(C)(C)C)c1 please
Result :: > 10000 µg/mL

Query :: Entry C=CCNC1=C2C[C@@H](C)C[C@H](OC)[C@H](O)[C@@H](C)/C=C(\C)[C@H](OC(N)=O)[C@@H](OC)/C=C\C=C(/C)C(=O)NC(=CC1=O)C2=O [TANESPIMYCIN] please
Result :: 50 µg/mL

Query :: Entry COc1ccc(I)c(Sc2nc3c(N)ncnc3n2CCCNC(C)(C)C)c1 please
Result :: > 10000 µg/mL
